All values here come from the supplement of paper PMC6470124.

- Procedure summary: absolute recovery over mixed-bed multilayer solid-phase extraction; higher = better recovery
- Cond: wastewater effluent; enrichment method: SPE
Kindly supply the reported absolute recovery values for the records listed here.
Value expressed in %; do not type the unit.

Input line: What absolute recovery value was documented for this compound, CN1C(=O)CC(C)(c2ccccc2)C1=O (stereo not drawn) [Methsuximide] ?
Output line: 89.9

Input line: Name the reported absolute recovery value associated with the compound CC1CC2C3CCC4=CC(=O)C=CC4(C)C3(F)C(O)CC2(C)C1(O)C(=O)CO (stereo not drawn) [Dexamethason]
Output line: 91.2

Input line: Recorded absolute recovery of `CON(C)C(=O)Nc1ccc(Cl)cc1` , please.
Output line: 91.9

---

Provide the recorded absolute recovery for the entries that follow.
- Procedure summary: absolute recovery over mixed-bed multilayer solid-phase extraction; higher = better recovery
- Cond: wastewater influent; enrichment method: SPE
# value in %; strip the unit string

Input line: Recorded absolute recovery of CCNc1nc(Cl)nc(NC(C)C)n1 [Atrazin] , please.
Output line: 91.5

Input line: Data request, read-out absolute recovery, for CCCC(C)(COC(N)=O)COC(=O)NC(C)C (centres undefined) [Carisoprodol]
Output line: 92.4

Input line: What value of absolute recovery has been recorded for this entry: CC12CCC(=O)C=C1CCC1C2C(O)CC2(C)C(C(=O)CO)CCC12 (centres undefined) [Corticosteron]
Output line: 89.1

Input line: Reported absolute recovery, compound NC1=C(Cl)C(=O)c2ccccc2C1=O [Quinoclamine] : ____
Output line: 88

---

Exercise: for every item that follows, state its recorded absolute recovery.
- Procedure summary: absolute recovery over mixed-bed multilayer solid-phase extraction; higher = better recovery
- Cond: wastewater effluent; enrichment method: SPE
Numbers only here, please. The scale is %.

Input line: Returns the measured absolute recovery for the input molecule. Input: `CN(C)S(=O)(=O)Nc1ccccc1`
Output line: 89.9

Input line: I would be grateful if you could share the reported absolute recovery for CC(C)[NH2+]CC(O)c1ccc(NS(C)(=O)=O)cc1 (centres undefined) .
Output line: 92.5

Input line: Look at this molecule and give its reported absolute recovery. `CS(=O)(=O)c1ccc(C(=O)[O-])c(Cl)c1`
Output line: 92.6

Input line: Request the reported absolute recovery associated with CC1CC2C3CCC4=CC(=O)C=CC4(C)C3(F)C(O)CC2(C)C1(O)C(=O)CO (centres undefined) [Betamethasone]
Output line: 90.5

---

- Procedure summary: LC retention time (Atlantis T3, 5-95% MeOH gradient, 0.1% formic acid); higher = more retained / less polar
Experimental readout: LC retention time (min)
The figure you give is taken to be in min; do not add the unit.

Input line: Name the recorded LC retention time for CCC(CC)OC1C=C(C(=O)[O-])CC([NH3+])C1NC(C)=O (centres undefined) .
Output line: 12.5

Input line: Given the molecule CC(=O)NCC1CN(c2ccc(N3CCOCC3)c(F)c2)C(=O)O1 (centres undefined) , what is its reported LC retention time?
Output line: 14.9

Input line: Find the recorded LC retention time belonging to c1ccc(C2CN3CCSC3=[NH+]2)cc1 (centres undefined) and report it.
Output line: 9.66

Input line: Recorded LC retention time of CCCC(C)(COC(N)=O)COC(=O)NC(C)C (centres undefined) , please.
Output line: 18.1

---

- Procedure summary: absolute recovery over mixed-bed multilayer solid-phase extraction; higher = better recovery
- Cond: nanopure water; enrichment method: SPE
Can you tell me absolute recovery for the items I'm about to list?
Express it in %; write the number only.

Input line: Look up absolute recovery: `Cc1nc(N(C)C)nc(OC(=O)N(C)C)c1C`
Output line: 99.4

Input line: Fill in: absolute recovery of `O=C([O-])C=C(F)C(F)(F)C(F)(F)C(F)(F)C(F)(F)C(F)(F)F` is ___
Output line: 69.6

Input line: # get_value(readout='absolute recovery', item= `CCOC(=O)Nc1cccc(OC(=O)Nc2ccccc2)c1` )
Output line: 90.8

Input line: Consider the compound shown here: `CCCCNC(=O)OCC#CI` What is its recorded absolute recovery?
Output line: 97.8

Input line: State the recorded absolute recovery for this entry: CC(C)[NH2+]CC(O)COc1cccc2ccccc12 (stereo not drawn)
Output line: 100

Input line: Quick check: absolute recovery of CC(C)CC(C[NH3+])CC(=O)[O-] (racemic) ?
Output line: 16.3

Input line: Bench note: what absolute recovery did COc1ccc2c3c1OC1C(O)CCC4C(C2)[NH+](C)CCC341 (stereo not drawn) [Dihydrocodeine] show?
Output line: 98.5

Input line: I'd like to know its absolute recovery. The compound in question is C[NH+](C)CCC(c1ccccc1)c1ccccn1 (stereo not drawn)
Output line: 87.9

Input line: Data request, read-out absolute recovery, for `C#CC[NH+](C)Cc1ccccc1`
Output line: 62.3

Input line: Endpoint output: absolute recovery of C[N+](C)([O-])CCC(c1ccccc1)c1ccccn1 (stereo not drawn) [Pheniramine-N-oxide] . Value?
Output line: 94.5

Input line: Which absolute recovery is listed for CCC1OC(=O)C(C)C(OC2CC(C)(OC)C(O)C(C)O2)C(C)C(OC2OC(C)CC([NH+](C)C)C2O)C(C)(OC)CC(C)C(=O)C(C)C(O)C1(C)O (stereo not drawn) ?
Output line: 89.7

Input line: Param item = Clc1ccc(C(c2ccccc2)N2CC[NH2+]CC2)cc1 (stereo not drawn) [1-[(4-Chlorophenyl)phenylmethyl]piperazine] ; retrieve measured absolute recovery.
Output line: 82.7

Input line: // absolute recovery lookup, key: NS(=O)(=O)c1cc(C2(O)NC(=O)c3ccccc32)ccc1Cl (stereo not drawn)
Output line: 94.1

---

- Procedure summary: absolute recovery over mixed-bed multilayer solid-phase extraction; higher = better recovery
- Cond: nanopure water; enrichment method: SPE
Give measured absolute recovery for each item. Keep answers brief.

Input line: I'd like to know its absolute recovery. The molecule in question is CC(C)Nc1nc(N)nc(Cl)n1 [Atrazin-Desethyl]
Output line: 92.5%

Input line: For the molecule CC12C=CC(=O)C=C1CCC1C2C(O)CC2(C)C1CCC2(O)C(=O)CO (stereo not drawn) [Prednisolon] , what absolute recovery is on record?
Output line: 88%

Input line: I would be grateful if you could share the reported absolute recovery for N#Cc1cc(Br)c([O-])c(Br)c1 [Bromoxynil] .
Output line: 92.1%
